molecular target: CFTR ΔF508 mutant (Homo sapiens, UniProt P13569, DEL508-508); test: YFP-halide influx assay for the CFTR-ΔF508 mutation (CFBE41o- cells); details: forskolin 10.67 μM, from (1−F/F0) vs concentration plot
Sequence (P13569 with tags, fused parts or gaps DEL508-508): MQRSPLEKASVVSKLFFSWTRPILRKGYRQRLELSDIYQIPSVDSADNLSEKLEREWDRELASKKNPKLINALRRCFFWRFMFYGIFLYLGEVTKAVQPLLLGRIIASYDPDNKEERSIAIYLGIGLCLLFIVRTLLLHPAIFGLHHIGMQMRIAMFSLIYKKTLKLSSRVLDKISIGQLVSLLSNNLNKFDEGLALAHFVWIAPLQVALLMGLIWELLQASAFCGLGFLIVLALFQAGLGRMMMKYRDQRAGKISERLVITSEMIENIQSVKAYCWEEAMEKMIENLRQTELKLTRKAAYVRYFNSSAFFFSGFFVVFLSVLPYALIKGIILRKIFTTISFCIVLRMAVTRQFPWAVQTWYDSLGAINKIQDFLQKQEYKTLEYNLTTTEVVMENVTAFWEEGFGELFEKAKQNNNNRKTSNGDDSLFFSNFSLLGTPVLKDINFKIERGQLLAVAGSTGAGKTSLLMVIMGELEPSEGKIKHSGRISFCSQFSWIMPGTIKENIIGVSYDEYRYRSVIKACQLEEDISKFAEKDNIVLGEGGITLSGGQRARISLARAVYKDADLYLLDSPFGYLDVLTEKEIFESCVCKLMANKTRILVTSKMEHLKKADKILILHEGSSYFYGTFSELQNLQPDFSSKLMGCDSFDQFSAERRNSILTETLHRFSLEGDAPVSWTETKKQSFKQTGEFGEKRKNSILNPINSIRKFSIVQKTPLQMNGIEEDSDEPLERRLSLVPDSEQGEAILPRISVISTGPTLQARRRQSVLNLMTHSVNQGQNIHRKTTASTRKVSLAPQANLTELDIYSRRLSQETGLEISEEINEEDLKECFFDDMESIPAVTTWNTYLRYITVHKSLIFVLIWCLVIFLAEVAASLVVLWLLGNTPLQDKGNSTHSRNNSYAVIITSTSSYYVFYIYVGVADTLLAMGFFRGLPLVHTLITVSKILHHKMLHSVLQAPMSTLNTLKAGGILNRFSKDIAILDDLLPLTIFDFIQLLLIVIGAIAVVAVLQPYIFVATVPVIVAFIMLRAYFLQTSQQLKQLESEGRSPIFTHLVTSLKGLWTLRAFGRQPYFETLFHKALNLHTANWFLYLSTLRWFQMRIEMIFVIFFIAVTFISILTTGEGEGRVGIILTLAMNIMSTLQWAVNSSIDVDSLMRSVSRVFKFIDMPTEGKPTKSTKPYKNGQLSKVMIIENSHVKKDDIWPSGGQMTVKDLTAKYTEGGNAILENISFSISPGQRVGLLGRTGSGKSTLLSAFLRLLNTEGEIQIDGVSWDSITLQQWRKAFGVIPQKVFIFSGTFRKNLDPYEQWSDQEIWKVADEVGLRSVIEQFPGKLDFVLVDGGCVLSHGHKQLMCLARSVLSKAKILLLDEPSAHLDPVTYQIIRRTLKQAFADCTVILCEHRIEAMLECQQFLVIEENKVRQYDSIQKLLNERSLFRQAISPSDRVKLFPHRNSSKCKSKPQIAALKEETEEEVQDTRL
pEC50: −log10 of the molar value.
measured-metric: pEC50

Examples from the recorded data:
# compound, system, pEC50
rows = [
    ("Nc1cc(S(=O)(=O)c2ccc(OC(F)(F)F)cc2)cnc1C(=O)NC1COC2(CCCC2)C1 (stereo not shown) [Compound 150]", "CFTR ΔF508 mutant (Homo sapiens, UniProt P13569, DEL508-508)", 6.45),
    ("CC1(C)CN(C(=O)c2ncc(S(=O)(=O)c3ccc(OC(F)(F)F)cc3F)cc2N)C1 [Compound 134]", "CFTR ΔF508 mutant (Homo sapiens, UniProt P13569, DEL508-508)", 7.36),
    ("Nc1cc(S(=O)(=O)N2CCC(F)(F)C2)cnc1C(=O)NCC(O)C(F)(F)F (stereo not shown) [Compound 186]", "CFTR ΔF508 mutant (Homo sapiens, UniProt P13569, DEL508-508)", 7.52),
    ("Nc1cc(S(=O)(=O)c2ccc(OC(F)(F)F)cc2)cnc1C(=O)N[C@H]1CCOC1 [Compound 144]", "CFTR ΔF508 mutant (Homo sapiens, UniProt P13569, DEL508-508)", 7.12),
]

[1] COC1CCN(S(=O)(=O)c2cnc(C(=O)NCC(O)C(F)(F)F)c(N)c2)CC1 (stereo not shown) [Compound 196]
[2] COCC1(C)CN(C(=O)c2ncc(S(=O)(=O)c3ccc(C(F)(F)F)cc3)cc2N)C1 [Compound 232]
Input line: Hi! Which is lower in terms of pEC50, the first one 1 or the second one 2 ? // return label of chosen record
Output line: 2
(2: 7.16, 1: 7.59)

###

biological target: CFTR-S549N (Homo sapiens, UniProt P13569, S549N); construct: expressed in transfected cells; test: YFP-halide influx assay for the CFTR-S549N; format: cell-based; design: concentration or dose not given beside the values
Sequence (P13569 whole entry S549N): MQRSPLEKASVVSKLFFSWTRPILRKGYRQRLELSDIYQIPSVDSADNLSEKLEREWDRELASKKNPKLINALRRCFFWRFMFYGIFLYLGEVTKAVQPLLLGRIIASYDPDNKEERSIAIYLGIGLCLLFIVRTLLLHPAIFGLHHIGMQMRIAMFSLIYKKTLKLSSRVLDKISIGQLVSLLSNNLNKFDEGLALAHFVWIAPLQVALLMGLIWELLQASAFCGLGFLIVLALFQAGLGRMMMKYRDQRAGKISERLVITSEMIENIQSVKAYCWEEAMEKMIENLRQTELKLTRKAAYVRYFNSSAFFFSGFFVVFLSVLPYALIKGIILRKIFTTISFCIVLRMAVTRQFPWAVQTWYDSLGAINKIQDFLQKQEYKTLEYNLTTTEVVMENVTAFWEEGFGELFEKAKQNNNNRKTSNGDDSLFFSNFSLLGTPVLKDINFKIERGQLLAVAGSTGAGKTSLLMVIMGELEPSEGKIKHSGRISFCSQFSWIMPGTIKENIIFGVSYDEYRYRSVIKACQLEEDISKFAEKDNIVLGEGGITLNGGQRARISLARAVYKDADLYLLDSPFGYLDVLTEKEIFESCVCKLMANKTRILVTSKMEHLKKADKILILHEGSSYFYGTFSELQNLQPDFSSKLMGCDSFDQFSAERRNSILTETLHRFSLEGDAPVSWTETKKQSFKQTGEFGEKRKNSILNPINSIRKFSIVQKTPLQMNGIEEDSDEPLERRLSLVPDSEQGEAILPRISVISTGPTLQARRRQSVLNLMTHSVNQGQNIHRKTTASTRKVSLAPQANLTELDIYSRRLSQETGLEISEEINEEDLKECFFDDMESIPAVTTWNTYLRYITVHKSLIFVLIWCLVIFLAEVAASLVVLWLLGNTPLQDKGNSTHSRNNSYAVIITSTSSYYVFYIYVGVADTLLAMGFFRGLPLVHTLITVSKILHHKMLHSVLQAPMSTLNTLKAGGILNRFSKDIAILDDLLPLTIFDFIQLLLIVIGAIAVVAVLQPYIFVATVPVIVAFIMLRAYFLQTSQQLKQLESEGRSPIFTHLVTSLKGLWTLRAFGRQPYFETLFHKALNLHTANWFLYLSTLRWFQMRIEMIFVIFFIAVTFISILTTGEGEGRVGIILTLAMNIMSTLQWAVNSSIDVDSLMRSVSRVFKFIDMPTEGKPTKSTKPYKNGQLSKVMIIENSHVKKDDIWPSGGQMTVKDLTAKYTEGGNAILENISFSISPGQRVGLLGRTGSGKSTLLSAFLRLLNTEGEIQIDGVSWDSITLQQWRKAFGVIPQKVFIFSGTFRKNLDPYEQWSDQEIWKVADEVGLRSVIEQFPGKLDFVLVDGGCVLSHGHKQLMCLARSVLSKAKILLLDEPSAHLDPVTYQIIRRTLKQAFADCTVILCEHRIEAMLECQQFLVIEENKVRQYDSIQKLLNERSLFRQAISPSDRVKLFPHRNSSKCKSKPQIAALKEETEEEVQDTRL
measured-metric: % Activation (%)

# molecule, % Activation, %
records = [
    ("CC(C)(O)CNC(=O)c1ncc(S(=O)(=O)c2ccc(C(F)(F)F)cc2)cc1N", 84.1),
    ("Nc1cc(S(=O)(=O)c2ccccc2OC(F)(F)F)cnc1C(=O)N1CC(F)(F)C1", 80.37),
    ("Nc1cc(S(=O)(=O)c2ccc(C(F)(F)F)cc2)cnc1C(=O)NCC(F)(F)CO", 90.7),
    ("CC(C)(O)CNC(=O)c1ncc(S(=O)(=O)c2ccc(OC(F)(F)F)cc2)cc1N", 72.7),
    ("Nc1cc(S(=O)(=O)c2ccc(OC(F)(F)F)cc2)cnc1C(=O)NCCO", 68.9),
    ("Nc1cc(S(=O)(=O)c2ccc(OC(F)(F)F)cc2)cnc1C(=O)NCC(O)COCC1CC1 (centres unmarked)", 91.4),
    ("Nc1cc(S(=O)(=O)c2ccc(OC(F)(F)F)cc2)cnc1C(=O)NCC(O)C(F)(F)F (centres unmarked)", 87.1),
    ("Nc1cc(S(=O)(=O)c2ccccc2OC(F)(F)F)cnc1C(=O)N1CC(O)(C(F)(F)F)C1", 104.8),
    ("Nc1cc(S(=O)(=O)c2ccccc2OC(F)(F)F)cnc1C(=O)NC[C@@H](O)C(F)(F)F", 107),
    ("COC[C@H](O)CNC(=O)c1ncc(S(=O)(=O)c2ccccc2OC(F)(F)F)cc1N", 104.0),
    ("Nc1cc(S(=O)(=O)c2ccc(F)cc2)c(-c2ccc(F)cc2)nc1C(=O)NC[C@@H](O)C(F)(F)F", 105.0),
    ("Nc1cc(S(=O)(=O)N2CCC(C(F)(F)F)CC2)cnc1C(=O)NCC(O)C(F)(F)F (centres unmarked)", 65.61),
    ("Nc1cc(S(=O)(=O)c2ccc(F)cc2)cnc1C(=O)N1CC(O)(C(F)(F)F)C1", 92.0),
    ("Nc1cc(S(=O)(=O)c2ccc(OC(F)(F)F)cc2)cnc1C(=O)Nc1cc[nH]n1", 75.6),
    ("Nc1cc(S(=O)(=O)c2ccc(OC(F)(F)F)cc2)cnc1C(=O)N[C@@H]1COCC[C@@H]1O (racemic)", 82.2),
    ("C[C@H](O)CNC(=O)c1ncc(S(=O)(=O)c2ccc(OC(F)(F)F)cc2)cc1N", 86.4),
    ("Nc1cc(S(=O)(=O)c2ccc(F)cc2)cnc1C(=O)NC[C@H](O)C(F)(F)F", 82.5),
    ("COCC(O)CNC(=O)c1ncc(S(=O)(=O)c2ccccc2OC(F)(F)F)cc1N (centres unmarked)", 108.5),
    ("Nc1cc(S(=O)(=O)c2ccc(OC(F)(F)F)cc2)cnc1C(=O)N[C@@H]1COC[C@H]1O (racemic)", 91.4),
    ("Nc1cc(S(=O)(=O)c2ccc(OC(F)(F)F)cc2)cnc1C(=O)N1CC(O)(C2CC2)C1", 98.52),
    ("COCC(O)CNC(=O)c1ncc(S(=O)(=O)c2ccc(OC(F)(F)F)cc2)cc1N (centres unmarked)", 91.8),
    ("COC[C@H](O)CNC(=O)c1ncc(S(=O)(=O)c2ccc(C(F)(F)F)cc2)cc1N", 104.7),
    ("C[C@H](O)CNC(=O)c1ncc(S(=O)(=O)c2ccccc2OC(F)(F)F)cc1N", 106.9),
    ("Nc1cc(S(=O)(=O)c2ccc(C(F)(F)F)cc2)cnc1C(=O)NCCO", 55.9),
    ("Nc1cc(S(=O)(=O)c2ccc(OC(F)(F)F)cc2)cnc1C(=O)N1CC(F)(F)C1", 84.51),
    ("CC(O)(CNC(=O)c1ncc(S(=O)(=O)c2ccc(F)cc2)cc1N)C(F)(F)F (centres unmarked)", 79.6),
]
